- SYSTEM UNDER TEST: AR (Homo sapiens)
- Construct: Degradation of AR; Cellular potency; host or cells: VCaP cells
- Sequence (P10275 1-920): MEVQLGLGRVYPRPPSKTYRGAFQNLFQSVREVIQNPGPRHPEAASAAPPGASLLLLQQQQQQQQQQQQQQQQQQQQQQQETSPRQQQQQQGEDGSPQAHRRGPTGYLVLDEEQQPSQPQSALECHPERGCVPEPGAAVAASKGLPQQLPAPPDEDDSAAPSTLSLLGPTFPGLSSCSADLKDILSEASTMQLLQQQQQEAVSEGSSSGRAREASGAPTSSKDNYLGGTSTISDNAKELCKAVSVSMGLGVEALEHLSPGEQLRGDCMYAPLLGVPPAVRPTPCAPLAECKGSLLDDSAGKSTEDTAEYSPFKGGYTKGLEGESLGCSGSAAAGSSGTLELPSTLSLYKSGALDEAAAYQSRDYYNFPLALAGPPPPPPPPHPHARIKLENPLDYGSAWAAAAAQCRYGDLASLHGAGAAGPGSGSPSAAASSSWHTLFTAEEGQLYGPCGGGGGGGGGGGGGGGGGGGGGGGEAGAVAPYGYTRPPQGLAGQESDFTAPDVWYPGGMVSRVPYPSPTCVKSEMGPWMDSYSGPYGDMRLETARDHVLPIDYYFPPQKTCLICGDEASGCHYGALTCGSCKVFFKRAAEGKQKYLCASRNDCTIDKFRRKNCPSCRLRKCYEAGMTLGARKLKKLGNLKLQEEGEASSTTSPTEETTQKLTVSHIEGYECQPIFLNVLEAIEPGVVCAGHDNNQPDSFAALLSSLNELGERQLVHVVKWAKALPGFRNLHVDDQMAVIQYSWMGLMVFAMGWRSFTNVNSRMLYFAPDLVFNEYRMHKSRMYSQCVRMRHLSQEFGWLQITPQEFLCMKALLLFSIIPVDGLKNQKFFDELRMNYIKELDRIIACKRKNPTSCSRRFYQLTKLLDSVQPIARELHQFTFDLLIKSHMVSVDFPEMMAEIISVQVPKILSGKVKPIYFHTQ
- TEST SUMMARY: Degradation of AR in VCaP cells
- Assay type: cell-based
- CONDITION PARAMETERS: VCaP, VCaP cells
MEASURED ATTRIBUTE: Dmax

Known Dmax results, listed for orientation:
MOLECULE	SYSTEM UNDER TEST	MEASURED ATTRIBUTE	ENDPOINT VALUE
C[C@H]1CC2(CCN(c3ccc(N4CCC(CN5Cc6cc7c(cc6C5)C(=O)N(C5CCC(=O)NC5=O)C7=O)CC4)nn3)CC2)CN1c1ccc(C#N)c(Cl)c1 (some centres unmarked)	AR (Homo sapiens)	Dmax	> 90%
C[C@H]1CC2(CCN(c3ccc(N4CCN(CC5CN(c6ccc7c(c6)C(=O)N(C6CCC(=O)NC6=O)C7=O)C5)CC4)nc3)CC2)CN1c1ccc(C#N)c(Cl)c1 (some centres unmarked)	AR (Homo sapiens)	Dmax	> 90%
COC1(CN2CCN(c3ccc(N4CCC5(CC4)C[C@H](C)N(c4ccc(C#N)c(Cl)c4)C5)cn3)CC2)CN(c2ccc3c(c2)C(=O)N(C2CCC(=O)NC2=O)C3=O)C1 (some centres unmarked)	AR (Homo sapiens)	Dmax	> 90%
C[C@H]1CC2(CCN(c3ccc(N4CCC(N(C)C5CN(c6ccc7c(c6)C(=O)N(C6CCC(=O)NC6=O)C7=O)C5)CC4)nc3)CC2)CN1c1ccc(C#N)c(Cl)c1 (some centres unmarked)	AR (Homo sapiens)	Dmax	70 to 90%

Entry C[C@H]1CC2(CCN(c3ccc(C4CCN(C(=O)CN5Cc6cc7c(cc6C5)C(=O)N(C5CCC(=O)NC5=O)C7=O)CC4)cc3)CC2)CN1c1ccc(C#N)c(Cl)c1 (some centres unmarked) — recorded Dmax = > 90%
